# assayDetails: NCI Yeast Anticancer Drug Screen. Data for the mec2-1 strain (AID 157)
# conditionSet: S. cerevisiae mec2-1 strain, at 50.0 µM, hits give high values
This is part of a sample that, as a whole, favours compounds with a hit. Of some 79,000 tested, about 15% had one in any assay.
So basically: growth inhibition at 20% or higher? That is yes (1). Lower than 20%? That is no (0).

Some solved cases for reference:
COc1ccc(SC2=C(N(C)C(C)=O)C(=O)c3ccccc3C2=O)cc1	yes (1)
CCCCCCCCC(=O)Cl	yes (1)
O=C1C2Nc3ccccc3SC2C(=O)N1c1ccccc1C(F)(F)F (configuration not stated)	no (0)
CN(Cc1cnc2nc(N)nc(N)c2n1)c1ccc(C(=O)NC(CCC(=O)O)C(=O)O)c(Cl)c1Cl (configuration not stated)	yes (1)
NC(N)=NC(N)=Nc1ccc(-c2ccccc2)cc1	no (0)

*Q* Hello, I need to know if `COC(=O)CSc1nc2ccccc2[nH]1` has measured growth inhibition not below 20%. Thanks!
*A* no (0)

*Q* Hello, I need to know if `O=C1c2ccccc2C(=O)c2c(OCCOCCO)cccc21` has measured growth inhibition not below 20%. Thanks!
*A* yes (1)

*Q* Hello, I need to know if `CCOC(=O)/C(C#N)=C/c1coc2cc(C)cc(C)c2c1=O` has measured growth inhibition not below 20%. Thanks!
*A* yes (1)

*Q* Hello, I need to know if `COc1ccc(C(=O)CC(=O)c2ccccc2)cc1` has measured growth inhibition not below 20%. Thanks!
*A* no (0)

*Q* Hello, I need to know if Cc1ccc(S(=O)(=O)CC2(Br)CCc3ccccc3C2=O)cc1 (configuration not stated) has measured growth inhibition not below 20%. Thanks!
*A* yes (1)

*Q* Hello, I need to know if Cc1ccc(C2(c3ccc(F)cc3)OC(=O)c3ccccc32)c(O)c1 (configuration not stated) has measured growth inhibition not below 20%. Thanks!
*A* yes (1)

*Q* Hello, I need to know if CCN(CC)CCOc1ccc(C(O)(Cc2ccc(Cl)cc2)c2ccccc2)cc1 (configuration not stated) has measured growth inhibition not below 20%. Thanks!
*A* yes (1)
